Test system: PF3D7_0420300 AP2 domain 1 (GST-tagged)
test-description: gcPBM binding intensity (ln(normalized median fluorescence intensity)); higher = stronger DNA binding
The full ranking holds about 25,000 sequences; the median of “ln(normalized median fluorescence intensity)” is about 9.3, and the highest 2% start at about 10. The entries come from a sample that favours the highest values as a whole.
parameter-measured: gcPBM binding intensity (ln)
Numbers only.

Some solved entries appear below for comparison.
primary-sequence: CATATATAGATATATACACACATACATACATACATA [CACACA_site7748]
assayed-target: PF3D7_0420300 AP2 domain 1 (GST-tagged)
parameter-measured: gcPBM binding intensity (ln)
endpoint-value: 9.59
//
primary-sequence: CATACATACATACATACACACATACAGATATATATA [CACACA_site4890]
assayed-target: PF3D7_0420300 AP2 domain 1 (GST-tagged)
parameter-measured: gcPBM binding intensity (ln)
endpoint-value: 9.84
//
primary-sequence: ATAAATATATATTTACGTACATATTATATATATATA [XGTACX_site6172]
assayed-target: PF3D7_0420300 AP2 domain 1 (GST-tagged)
parameter-measured: gcPBM binding intensity (ln)
endpoint-value: 9.27
//
primary-sequence: AATATTAAAGAATAATGTACAAAATAAAAGCAAAGA [XGTACX_site3550]
assayed-target: PF3D7_0420300 AP2 domain 1 (GST-tagged)
parameter-measured: gcPBM binding intensity (ln)
endpoint-value: 9.86

Could you now look at the following sequence, please?
Supply reported gcPBM binding intensity (ln) belonging to this sequence: TATAGATACAGATACACACACACACCGACATATATA [CACACA_site5832]
10.2
